Value source: PubChem BioAssay AID651876

- Target under test: Kelch-like ECH-associated protein 1 (Homo sapiens) (UniProt Q14145)
- Sequence (Q14145 whole entry, looked up): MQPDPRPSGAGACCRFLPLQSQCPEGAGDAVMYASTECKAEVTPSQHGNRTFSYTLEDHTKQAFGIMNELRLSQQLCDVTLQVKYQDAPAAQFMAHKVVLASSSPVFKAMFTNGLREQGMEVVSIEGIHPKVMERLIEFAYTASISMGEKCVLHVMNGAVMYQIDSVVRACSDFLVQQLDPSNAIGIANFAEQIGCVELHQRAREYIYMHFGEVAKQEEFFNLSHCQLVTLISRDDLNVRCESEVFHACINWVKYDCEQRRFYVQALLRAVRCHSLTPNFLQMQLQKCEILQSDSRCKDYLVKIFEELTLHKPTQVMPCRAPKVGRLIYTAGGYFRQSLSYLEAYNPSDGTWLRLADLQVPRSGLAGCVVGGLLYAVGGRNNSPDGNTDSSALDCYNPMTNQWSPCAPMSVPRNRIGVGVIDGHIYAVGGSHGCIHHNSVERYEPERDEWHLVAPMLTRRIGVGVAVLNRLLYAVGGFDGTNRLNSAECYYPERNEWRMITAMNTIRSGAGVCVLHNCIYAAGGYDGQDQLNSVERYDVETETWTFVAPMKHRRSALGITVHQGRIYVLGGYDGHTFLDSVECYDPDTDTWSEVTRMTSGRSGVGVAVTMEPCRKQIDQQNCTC
- Test summary: competitive SPR blockade of Keap1/Nrf2 binding – biophysical, dry powder, orthogonal assay for Keap1-Nrf2 interaction inhibitor project, confirmation (AID 651876)
- Study conditions: Keap1 Kelch binding to Nrf2 peptide, at 50 µM
Calls of active or inactive are those of the source.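 The calls were made as follows: active = inhibition above 20% at 50 µM; inactive = the rest.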
Log the outcome using a class from active, inactive

Prompt: What was the test verdict on Cc1ccccc1S(=O)(=O)Nc1cc(C(C(=O)OC(C)C)C(=O)C(F)(F)F)c(O)c2ccccc12 (centres undefined) ?
Completion: active

Prompt: Consider next the compound `CCOC(=O)C(C(=O)OCC)c1cc(CN2C(=O)c3ccccc3C2=O)c2ccccc2n1` in the same way.
Completion: inactive

Prompt: Similarly, COC(=O)C1CCCCC1C(=O)N1CCc2ccccc2C1CN1C(=O)c2ccccc2C1=O (centres undefined) ?
Completion: inactive

Prompt: And then O=C(O)C1CCCCC1C(=O)N1CCc2ccccc2C1CN1C(=O)[C@H]2CCCC[C@H]2C1=O (some centres undefined) , what is it?
Completion: active

Prompt: // next record `O=C1c2ccccc2C(=O)N1C[C@@H]1c2ccccc2CCN1C(=O)C1CCCCC1`
Completion: inactive

Prompt: `CCOC(=O)C(C(=O)OCC)c1nc(NS(=O)(=O)c2c(C)cc(C)cc2C)c2ccccc2n1` , same question.
Completion: inactive

Prompt: Then what about the compound O=C(O)[C@H]1CCCC[C@H]1C(=O)NC(CN1C(=O)c2ccccc2C1=O)c1ccccc1 (some centres undefined) ?
Completion: inactive

Prompt: Similarly, `O=C(NC[C@@H]1c2ccccc2CCN1C(=O)[C@@H]1CCCC[C@@H]1C(=O)O)c1ccccc1CO` ?
Completion: active

Prompt: Let us now turn to Cc1ccc(S(=O)(=O)Nc2cc(C(C(=O)OC(C)C)C(=O)C(F)(F)F)c(O)c3ccccc23)c(C)c1 (centres undefined)
Completion: active
